System: NF-κ B
Procedure summary: Inhibitory activity of NF-κ B activation, luciferase reporter assay in HepG2 under TNF-α stimulation
Type: cell-based, human
Condition parameters: 10 μg/mL; HepG2, TNF-α (40 ng/ml), 4 hours
Note to self: values exactly at 90% are Criterion met. So Inhibitory Ratio of NF-κ B Activation(%) Drug Concentration 10 μg/mL at or above 90% is Criterion met, below is Criterion not met.

- Compound: "O=C(Nc1cc(C(F)(F)F)ccc1N1CCOCC1)c1cc(Br)ccc1O [Compound No. 98]"
  Assigned label: "Criterion not met"
- Compound: "CC(C)(C)c1cc(NC(=O)c2cc(Cl)cnc2O)cc(C(C)(C)C)c1 [Compound No. 184]"
  Assigned label: "Criterion not met"
- Compound: "O=C(Nc1cc(Cl)cc(Cl)c1)c1cc([N+](=O)[O-])ccc1O [Compound No. 130]"
  Assigned label: "Criterion not met"
- Compound: "O=C(Nc1cc([N+](=O)[O-])cc([N+](=O)[O-])c1)c1cc(Br)ccc1O [Compound No. 133]"
  Assigned label: "Criterion met"
- Compound: "COc1cc(NC(=O)c2cc(Br)ccc2O)cc(OC)c1 [Compound No. 143]"
  Assigned label: "Criterion met"
- Compound: "CC(=O)Oc1ccc(Cl)cc1C(=O)Nc1nc(C(C)(C)C)c(C(=O)C(C)(C)C)s1 [Compound No. 200]"
  Assigned label: "Criterion met"
- Compound: "O=C(Nc1cc(C(F)(F)F)cc(C(F)(F)F)c1)c1cc(C(F)(F)F)ccc1O [Compound No. 25]"
  Assigned label: "Criterion met"

----------
Tested on: NF-κ B
Procedure summary: Inhibitory activity of NF-κ B activation, luciferase reporter assay in HepG2 under TNF-α stimulation
Format: cell-based, human
Condition parameters: 1 μg/mL; HepG2, TNF-α (40 ng/ml), 4 hours
Note to self: values exactly at 90% are MET. So Inhibitory Ratio of NF-κ B Activation(%) Drug Concentration 1 μg/mL at or above 90% is MET, below is NOT MET.

- Item smiles: "O=C(Nc1nc(Cc2ccccc2)c(-c2ccccc2)s1)c1cc(Br)ccc1O"
  Assigned label: "NOT MET"
- Item smiles: "COc1ccc(-n2cccc2)c(NC(=O)c2cc(Cl)ccc2O)c1"
  Assigned label: "NOT MET"
- Item smiles: "O=C(Nc1cc(C(F)(F)F)ccc1Br)c1cc(Cl)ccc1O"
  Assigned label: "MET"
- Item smiles: "O=C(Nc1cc(C(F)(F)F)cc(C(F)(F)F)c1)c1c(O)ccc2ccccc12"
  Assigned label: "MET"
- Item smiles: "CC(C)(C)c1cc(C(=O)Nc2cc(C(F)(F)F)cc(C(F)(F)F)c2)c(O)c(C(C)(C)C)c1"
  Assigned label: "NOT MET"
- Item smiles: "CN(C)S(=O)(=O)c1ccc(O)c(C(=O)Nc2cc(C(F)(F)F)cc(C(F)(F)F)c2)c1"
  Assigned label: "NOT MET"
- Item smiles: "O=C(Nc1cc(C(F)(F)F)cc(C(F)(F)F)c1)c1cc2ccccc2cc1O"
  Assigned label: "MET"

----------
System: NF-κ B
Procedure summary: Inhibitory activity of NF-κ B activation, luciferase reporter assay in HepG2 under TNF-α stimulation
Type: cell-based, human
Condition parameters: 1 μg/mL; HepG2, TNF-α (40 ng/ml), 4 hours
Metric name: Inhibitory Ratio of NF-κ B Activation(%) Drug Concentration 1 μg/mL

- Molecule: "O=C(Nc1cc(C(F)(F)F)cc(C(F)(F)F)c1)c1cc(CCc2ccccc2)ccc1O [Compound No. 24]"
  Measured: 92.3
- Molecule: "COc1ccc(OC)c(NC(=O)c2cc(Br)ccc2O)c1 [Compound No. 142]"
  Measured: 32.4
- Molecule: "CC(=O)Oc1ccc(Cl)cc1C(=O)Nc1cc(C(F)(F)F)ccc1C(F)(F)F [Compound No. 82]"
  Measured: 94.0
- Molecule: "Cc1ccc(O)c(C(=O)Nc2cc(C(F)(F)F)ccc2Cl)c1 [Compound No. 100]"
  Measured: 85.6
- Molecule: "COc1ccc(C)c(NC(=O)c2cc(Cl)ccc2O)c1 [Compound No. 160]"
  Measured: 69.6

----------
System: NF-κ B
Procedure summary: Inhibitory activity of NF-κ B activation, luciferase reporter assay in HepG2 under TNF-α stimulation
Assay type: cell-based, human
Condition parameters: 10 μg/mL; HepG2, TNF-α (40 ng/ml), 4 hours
compounds and their reported Inhibitory Ratio of NF-κ B Activation(%) Drug Concentration 10 μg/mL
Metric name: Inhibitory Ratio of NF-κ B Activation(%) Drug Concentration 10 μg/mL

- Item smiles: "COc1ccc(C(N)=O)cc1NC(=O)c1cc(Cl)ccc1O"
  Measured: "97.4%"
- Item smiles: "O=C(Nc1cc(Br)cc(C(F)(F)F)c1)c1cc(Br)ccc1O"
  Measured: "98.7%"
- Item smiles: "O=C(Nc1cc(C(F)(F)F)ccc1OCC(F)(F)F)c1cc(Cl)ccc1O"
  Measured: "96.2%"
- Item smiles: "O=C(Nc1cc(C(F)(F)F)cc(C(F)(F)F)c1)c1cc(NC(=S)Nc2ccccc2)ccc1O"
  Measured: "97.2%"
- Item smiles: "CCOC(=O)c1sc(NC(=O)c2cc(Br)ccc2O)nc1C(F)(F)F"
  Measured: "96.5%"
- Item smiles: "O=C(Nc1cc(Cl)cc(Cl)c1)c1cc2ccccc2cc1O"
  Measured: "95.1%"
- Item smiles: "O=C(Nc1cc(Cl)cc(Cl)c1)c1cc(Br)ccc1O"
  Measured: "92.8%"
- Item smiles: "Cc1ccc(C(F)(F)F)cc1NC(=O)c1cc(Cl)ccc1O"
  Measured: "97.9%"
- Item smiles: "O=C(Nc1cc(C(F)(F)F)cc(C(F)(F)F)c1)c1cc(Cl)ccc1O"
  Measured: "73.0%"
- Item smiles: "CC(C)(C)c1ccc(C(C)(C)C)c(NC(=O)c2cc(Cl)ccc2O)c1"
  Measured: "96.3%"
- Item smiles: "O=C(Nc1cc(C(F)(F)F)ccc1[N+](=O)[O-])c1cc(Cl)ccc1O"
  Measured: "96.7%"
- Item smiles: "CCc1nc(NC(=O)c2cc(Br)ccc2O)sc1-c1ccccc1"
  Measured: "87.6%"
- Item smiles: "O=C(Nc1cc(Cl)cc(Cl)c1)c1c(O)ccc2ccccc12"
  Measured: "90.2%"
- Item smiles: "CC(C)(C)CC(C)(C)c1ccc(O)c(C(=O)Nc2cc(C(F)(F)F)cc(C(F)(F)F)c2)c1"
  Measured: "99.1%"
- Item smiles: "COc1ccc(C(F)(F)F)cc1NC(=O)c1cc(Cl)ccc1O"
  Measured: "98.5%"
- Item smiles: "Cc1ccc(Oc2ccc(C(F)(F)F)cc2NC(=O)c2cc(Cl)ccc2O)cc1"
  Measured: "92.6%"
- Item smiles: "O=C(Nc1cc(C(F)(F)F)cc(C(F)(F)F)c1)c1cc(-c2ccccc2)ccc1O"
  Measured: "96.8%"

----------
System: NF-κ B
Procedure summary: Inhibitory activity of NF-κ B activation, luciferase reporter assay in HepG2 under TNF-α stimulation
Type: cell-based, human
Condition parameters: 1 μg/mL; HepG2, TNF-α (40 ng/ml), 4 hours
Note to self: values exactly at 90% are Yes. So Inhibitory Ratio of NF-κ B Activation(%) Drug Concentration 1 μg/mL at or above 90% is Yes, below is No.

- Item smiles: "O=C(Nc1nc(C(F)(F)F)c(Br)s1)c1cc(Br)ccc1O"
  Assigned label: "No"
- Item smiles: "O=C(Nc1cc(Cl)cc(Cl)c1)c1cc(Cl)ccc1O"
  Assigned label: "No"
- Item smiles: "O=C(Nc1cc(C(F)(F)F)cc(C(F)(F)F)c1)c1cc(-n2cccc2)ccc1O"
  Assigned label: "Yes"
- Item smiles: "CCCCc1ccc([N+](=O)[O-])cc1NC(=O)c1cc(Cl)ccc1O"
  Assigned label: "Yes"
- Item smiles: "O=C(Nc1cc(C(F)(F)F)cc(C(F)(F)F)c1)c1cc(C=Cc2ccccc2)ccc1O"
  Assigned label: "Yes"
- Item smiles: "O=C(Nc1cc(C(F)(F)F)cc(C(F)(F)F)c1)c1cc(F)ccc1O"
  Assigned label: "No"
- Item smiles: "O=C(Nc1cc(Cl)ccc1Cl)c1cc(Cl)ccc1O"
  Assigned label: "Yes"
- Item smiles: "COc1ccc(C(=O)Nc2cc(C(F)(F)F)cc(C(F)(F)F)c2)c(O)c1"
  Assigned label: "No"
- Item smiles: "Cc1ccc(-c2ccccc2)cc1NC(=O)c1cc(Cl)ccc1O"
  Assigned label: "Yes"
- Item smiles: "Cc1ccc(C(=O)Nc2cc(C(F)(F)F)cc(C(F)(F)F)c2)c(O)c1"
  Assigned label: "Yes"
- Item smiles: "N#Cc1ccc(Oc2ccc(C(F)(F)F)cc2NC(=O)c2cc(Cl)ccc2O)cc1"
  Assigned label: "Yes"
- Item smiles: "O=C(Nc1cc(Cl)cc(Cl)c1)c1cc(F)ccc1O"
  Assigned label: "Yes"
- Item smiles: "CC(=NOCc1ccccc1)c1ccc(O)c(C(=O)Nc2cc(C(F)(F)F)cc(C(F)(F)F)c2)c1"
  Assigned label: "Yes"
